# ASSAYED_TARGET: rat mGlu 5a receptor (Rattus norvegicus, UniProt P31424)
# Construct: expressed in transfected cells; host or cells: EBNA cells (transient transfection)
# Sequence (P31424 21-1171 isoform P31424-2 limits assumed): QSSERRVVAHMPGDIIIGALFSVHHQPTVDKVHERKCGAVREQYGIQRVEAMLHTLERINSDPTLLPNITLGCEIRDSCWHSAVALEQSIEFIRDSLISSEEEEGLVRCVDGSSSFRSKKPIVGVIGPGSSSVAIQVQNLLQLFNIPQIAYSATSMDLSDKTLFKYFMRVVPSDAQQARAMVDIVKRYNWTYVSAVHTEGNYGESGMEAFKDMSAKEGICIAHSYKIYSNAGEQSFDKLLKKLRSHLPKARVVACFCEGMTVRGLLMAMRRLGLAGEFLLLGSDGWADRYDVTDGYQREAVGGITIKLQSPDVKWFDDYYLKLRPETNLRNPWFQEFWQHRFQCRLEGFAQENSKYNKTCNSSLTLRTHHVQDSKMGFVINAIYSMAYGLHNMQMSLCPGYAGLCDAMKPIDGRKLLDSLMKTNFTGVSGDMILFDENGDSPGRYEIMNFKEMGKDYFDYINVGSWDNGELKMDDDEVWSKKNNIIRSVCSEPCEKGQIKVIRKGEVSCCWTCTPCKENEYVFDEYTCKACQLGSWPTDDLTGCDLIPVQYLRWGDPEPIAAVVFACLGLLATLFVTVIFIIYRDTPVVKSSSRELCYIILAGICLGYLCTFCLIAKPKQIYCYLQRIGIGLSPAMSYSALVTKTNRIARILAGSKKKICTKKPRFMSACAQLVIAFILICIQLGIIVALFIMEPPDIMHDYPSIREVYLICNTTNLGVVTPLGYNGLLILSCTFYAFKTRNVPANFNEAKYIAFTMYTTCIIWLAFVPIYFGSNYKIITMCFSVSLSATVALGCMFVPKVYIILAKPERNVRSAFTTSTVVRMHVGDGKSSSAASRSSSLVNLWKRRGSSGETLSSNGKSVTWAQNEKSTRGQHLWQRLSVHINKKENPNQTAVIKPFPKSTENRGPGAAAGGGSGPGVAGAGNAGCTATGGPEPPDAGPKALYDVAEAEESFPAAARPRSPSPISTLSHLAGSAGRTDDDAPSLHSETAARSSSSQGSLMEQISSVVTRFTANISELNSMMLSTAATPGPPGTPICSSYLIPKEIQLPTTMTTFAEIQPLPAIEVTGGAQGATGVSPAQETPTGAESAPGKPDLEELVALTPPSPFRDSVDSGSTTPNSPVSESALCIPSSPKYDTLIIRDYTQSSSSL
# PROTOCOL: [Ca2+]i measurement (FLIPR) on mGlu 5a transfected EBNA cells, antagonist mode
# Format: cell-based
# TEST_SETTINGS: rat mGlu 5a transiently transfected EBNA cells, Fluo 3-AM, tested against 10 μM glutamate as agonist
ENDPOINT_NAME: IC50 (nM)

{"SUBSTANCE_SMILES": "Cn1cnc(C#Cc2ccccc2)c1", "ENDPOINT_NAME": "IC50", "ASSAY_VALUE": 500}
{"SUBSTANCE_SMILES": "C(#Cc1ncn2c1CSc1ncccc1-2)c1ccccc1", "ENDPOINT_NAME": "IC50", "ASSAY_VALUE": 150}

[A] CCOC(=O)c1[nH]c(C#Cc2ccccc2)nc1C
[B] Cc1nc(C#Cc2ccccc2)c([N+](=O)[O-])n1C
Q: Of A and B , which one carries the higher reported IC50? Write down the label of the entry you select.
Result: A
(A: 2400 nM, B: 20 nM)

====

# ASSAYED_TARGET: rat mGlu 5a receptor (Rattus norvegicus, UniProt P31424)
# PROTOCOL: [Ca2+]i measurement (FLIPR) on mGlu 5a transfected EBNA cells, antagonist mode
# TEST_SETTINGS: rat mGlu 5a transiently transfected EBNA cells, Fluo 3-AM, tested against 10 μM glutamate as agonist
# Description: The pharmacological activity of all of the example compounds was tested using the following method: • cDNA encoding rat mGlu 5a receptor was transiently transfected into EBNA cells using a procedure described by E.-J. Schlaeger and K. Christensen (Transient gene expression in mammalian cells grown in serum-free suspension culture; Cytotechnology, 30: 71-83,1999). […]
ENDPOINT_NAME: IC50 (nM)

{"COMPOUND": "C(#Cc1c[nH]cn1)c1ccccc1 [Example 28, 4-Phenylethynyl-1H-imidazole]", "IC50 / nM": 3360}

[a] CCOC(=O)Cn1c(C#Cc2ccccc2)nc(Cl)c1Cl [Example 21]
[b] Cc1nc(C#Cc2ccccc2)c([N+](=O)[O-])n1CC(O)CCl (stereo not shown) [Example 26]
[c] Cn1ccnc1C#Cc1ccccc1F [Example 18]
[d] CC(C)c1nc(C=Cc2ccccc2)n(C)c1C(C)C [Example 32]
Q: Arrange these 4 compounds in increasing order of IC50. A ranking is expressed here by listing the labels in the requested order.
Result: c, b, a, d

====

# ASSAYED_TARGET: rat mGlu 5a receptor (Rattus norvegicus)
# PROTOCOL: [Ca2+]i measurement (FLIPR) on mGlu 5a transfected EBNA cells, antagonist mode
# TEST_SETTINGS: rat mGlu 5a transiently transfected EBNA cells, Fluo 3-AM, tested against 10 μM glutamate as agonist
# Method: The pharmacological activity of all of the example compounds was tested using the following method: • cDNA encoding rat mGlu 5a receptor was transiently transfected into EBNA cells using a procedure described by E.-J. Schlaeger and K. Christensen (Transient gene expression in mammalian cells grown in serum-free suspension culture; Cytotechnology, 30: 71-83,1999). […]
ENDPOINT_NAME: IC50 (µM)

Before answering, review these 2 worked examples.
{"SUBSTANCE_SMILES": "Cn1cncc1C#Cc1ccccc1", "IC50 [µM]": 0.22}
{"SUBSTANCE_SMILES": "CCOC(=O)c1c(C)nc(C#Cc2cccc(C)c2)n1C", "IC50 [µM]": 0.13}

[I] COc1ccc2[nH]c(C#Cc3ccccc3)c(CCNC(C)=O)c2c1
[II] Cc1ccc(C=Cc2nc(C(C)C)c(C(C)C)n2C)cc1
Q: Of I and II , which one carries the higher reported IC50? Write down the label of the entry you select.
Result: II
(II: 3.25 µM, I: 0.58 µM)

====

# ASSAYED_TARGET: rat mGlu 5a receptor (Rattus norvegicus)
# Construct: expressed in transfected cells; host or cells: EBNA cells (transient transfection)
# PROTOCOL: [Ca2+]i measurement (FLIPR) on mGlu 5a transfected EBNA cells, antagonist mode
# Assay type: cell-based
# TEST_SETTINGS: rat mGlu 5a transiently transfected EBNA cells, Fluo 3-AM, tested against 10 μM glutamate as agonist
pIC50: −log10 of the molar value.
ENDPOINT_NAME: pIC50

Before answering, review these 3 worked examples.
{"MOLECULE": "CCOC(=O)c1c(C)nc(C#Cc2cccc(NC(C)=O)c2)n1C [Example 10]", "pIC50": 5.67}
{"MOLECULE": "O=[N+]([O-])c1cnc(C#Cc2ccccc2)n1CCO [Example 5]", "pIC50": 5.68}
{"MOLECULE": "Cn1cnc(C#Cc2ccccc2)c1C=O [Example 27]", "pIC50": 5.75}

[I] CCOC(=O)c1c(C)nc(C#Cc2ccc(N)cc2)n1C [Example 19]
[II] CCOC(=O)c1c(C)nc(C#Cc2cccc(OC)c2)n1C [Example 3]
[III] Cn1cnc(Br)c1C=Cc1ccccc1 [Example 43, 4-Bromo-1-methyl-5-styryl-1H-imidazole]
[IV] Cc1noc(-c2c(C)nc(C#Cc3ccccc3)n2C)n1 [Example 12]
Q: Arrange the 4 molecules from largest to smallest pIC50. A ranking is expressed here by listing the labels in the requested order.
Result: IV, II, I, III
(IV: 7.96, II: 6.46, I: 5.82, III: 5.51)

====

Overview of recorded pIC50 for various compounds
# ASSAYED_TARGET: rat mGlu 5a receptor (Rattus norvegicus, UniProt P31424)
# PROTOCOL: [Ca2+]i measurement (FLIPR) on mGlu 5a transfected EBNA cells, antagonist mode
# TEST_SETTINGS: rat mGlu 5a transiently transfected EBNA cells, Fluo 3-AM, tested against 10 μM glutamate as agonist
pIC50: −log10 of the molar value.

Before answering, review these 2 worked examples.
{"COMPOUND": "Cc1cc(C#Cc2ccccc2)n(C)n1 [Example 31, 1,3-Dimethyl-5-phenylethynyl-1H-pyrazole]", "ASSAYED_TARGET": "rat mGlu 5a receptor (Rattus norvegicus, UniProt P31424)", "ASSAY_VALUE": "5.00 to 5.30"}
{"COMPOUND": "Cn1cncc1C=Cc1ccccc1 [Example 44, 1-Methyl-5-styryl-1H-imidazole]", "ASSAYED_TARGET": "rat mGlu 5a receptor (Rattus norvegicus, UniProt P31424)", "ASSAY_VALUE": 5.10}

Kindly review the next compound as well.
Q: Need pIC50, item COc1cc(C)c(C=Cc2nc(C(C)C)c(C(C)C)n2C)c(C)c1C [Example 36]
Result: 5.00 to 5.30

====

# ASSAYED_TARGET: rat mGlu 5a receptor (Rattus norvegicus, UniProt P31424)
# PROTOCOL: [Ca2+]i measurement (FLIPR) on mGlu 5a transfected EBNA cells, antagonist mode
# TEST_SETTINGS: rat mGlu 5a transiently transfected EBNA cells, Fluo 3-AM, tested against 10 μM glutamate as agonist
pIC50: −log10 of the molar value.
ENDPOINT_NAME: pIC50

Before answering, review these 3 worked examples.
{"SUBSTANCE_SMILES": "CCOC(=O)c1c(C)nc(C#Cc2ccc(-c3ccccc3)cc2)n1C", "pIC50": 6.68}
{"SUBSTANCE_SMILES": "C(#Cc1ncc[nH]1)c1ccccc1", "pIC50": 6.70}
{"SUBSTANCE_SMILES": "Cn1ccnc1C#Cc1ccccc1Cl", "pIC50": 5.96}

[P] Cn1ccnc1C#Cc1ccccc1
[Q] CCOC(=O)c1c(C)nc(C#Cc2ccccc2F)n1C
Q: Of P and Q , which one carries the higher reported pIC50? Write down the label of the entry you select.
Result: Q
(Q: 7.05, P: 6.14)

====

Overview of recorded IC50 for various compounds
# ASSAYED_TARGET: rat mGlu 5a receptor (Rattus norvegicus)
# Construct: expressed in transfected cells; host or cells: EBNA cells (transient transfection)
# PROTOCOL: [Ca2+]i measurement (FLIPR) on mGlu 5a transfected EBNA cells, antagonist mode
# Assay type: cell-based
# TEST_SETTINGS: rat mGlu 5a transiently transfected EBNA cells, Fluo 3-AM, tested against 10 μM glutamate as agonist

{"COMPOUND": "CCOC(=O)c1nc(C#Cc2ccccc2)n(-c2ccccc2)c1C [Example 8]", "IC50": "< 10 µM"}
{"COMPOUND": "CCOC(=O)c1c(C)nc(C#Cc2cccc(-n3c(C)ccc3C)c2)n1C [Example 11]", "IC50": "0.18 µM"}
{"COMPOUND": "CC(C)c1nc(C=Cc2ccc(F)cc2)n(C)c1C(C)C [Example 33]", "IC50": "5 to 10 µM"}
{"COMPOUND": "CCCCOc1ccc(C=Cc2nc(C(C)C)c(C(C)C)n2C)cc1 [Example 35]", "IC50": "5 to 10 µM"}

Kindly review the next compound as well.
Q: Need IC50, item COc1ccc(C=Cc2nc(C(C)C)c(C(C)C)n2C)cc1 [Example 37]
Result: 5 to 10 µM
